# assay_comment: Acidic ionization constant, pKa of the compound in water by potentiometric titration method
# Type: physicochemical
Field: pKa. Provide a value for each of the compounds that follow.
Give your answer as a number; write no unit.

Record request: pKa value, item Nc1cccc(O)c1 [3-AMINOPHENOL]
9.82

Record request: pKa value, item CCn1cc(C(=O)O)c(=O)c2ccc(C)nc21 [NALIDIXIC ACID]
6.25

---

Field: logD. Provide a value for each of the compounds that follow.
# assay_comment: Lipophilicity, log D of the compound in octanol/water system at pH 7 by potentiometric titration method
# Type: physicochemical
Give your answer as a number; write no unit.

Record request: logD value, item Nc1cccc(O)c1 [3-AMINOPHENOL]
0.1

Record request: logD value, item CC(C)Cc1ccc(C(C)C(=O)O)cc1 (centres undefined) [IBUPROFEN]
1.3

Record request: logD value, item Cc1cccc(C)c1NC(=O)C1CCCCN1C (centres undefined) [MEPIVACAINE]
1.1

Cited source: ChEMBL document CHEMBL5252580
